Data origin, for the record: patent US9382426B2

Assay: Light resistance evaluation of compound: ink image samples on paper, xenon tester
Assay type: physicochemical
Parameters: key: ΔE = Euclidean distance of L*a*b* before vs after exposure
Settings: ink image sample on paper; xenon tester 10 hours, 0.39 W/m^2 at 340 nm, 40° C., relative humidity 60%
Reported endpoint: Light resistance ΔE (color difference)

Reference set (2 entries):
| Compound | Observed measurement |
| --- | --- |
| CCCCC(CC)CN(CC(CC)CCCC)C(=O)c1cccc(/N=N/c2c(C)c(C#N)c(=O)n(N)c2O)c1 (stereo not drawn) | 1.70 |
| CCCCC(CC)CN(CC(CC)CCCC)C(=O)c1cccc(/N=N/c2c(C)c(C#N)c(=O)n(NC(=O)C(CC)CCCC)c2O)c1 (stereo not drawn) | 4.32 |

Now for a further compound.
Fill in: Light resistance ΔE (color difference) of CCCCC(CC)CN(CC(CC)CCCC)S(=O)(=O)c1ccc(/N=N/c2c(C)c(C#N)c(=O)n(N)c2O)cc1 (stereo not drawn) is ___
2.37

---

Assay: Evaluation of light resistance of color filters, xenon tester
Type: physicochemical
Details: color filter containing the compound; xenon tester 50 hours, 0.39 W/m^2 at 340 nm, 40° C., relative humidity 60%

| Compound | Light resistance ΔE, evaluation grade |
| --- | --- |
| CCCCC(CC)CN(CC(CC)CCCC)C(=O)c1ccc(/N=N/c2c(-c3ccccc3)c(C#N)c(=O)n(NC(=O)c3ccccc3)c2O)cc1 (stereo not shown) | A (A: ΔE<3.50) |
| CCCCC(CC)CN(CC(CC)CCCC)C(=O)c1ccccc1/N=N/c1c(C)c(C#N)c(=O)n(N)c1O (stereo not shown) | A (A: ΔE<3.50) |

---

Catalogue of molecules with associated Light resistance ΔE (color difference)
Experiment: Evaluation of light resistance of thermal transfer recording sheets, xenon tester
Format: physicochemical
Settings: thermal transfer recording sheet containing the compound; xenon tester 50 hours, 0.39 W/m^2 at 340 nm, 40° C., relative humidity 60%
Respond numerically, and do not add a unit to the figure.

Reference set (2 entries):
| Molecule | Light resistance ΔE (color difference) |
| --- | --- |
| CCCCC(CC)CN(CC(CC)CCCC)C(=O)c1cccc(/N=N/c2c(C)c(C#N)c(=O)n(N(C)C)c2O)c1 (stereo not drawn) | 3.37 |
| CCCCC(CC)CN(CC(CC)CCCC)C(=O)c1ccc(/N=N/c2c(C)c(C#N)c(=O)n(N(CCCC)CCCC)c2O)cc1 (stereo not drawn) | 4.89 |

Fill in: Light resistance ΔE (color difference) of CCCCC(CC)CN(CC(CC)CCCC)S(=O)(=O)c1ccc(/N=N/c2c(C)c(C#N)c(=O)n(N(C)C(=O)C(C)(C)C)c2O)cc1 (stereo not drawn) is ___
2.56
